- System: Escherichia coli
- measurement description: Antimicrobial activity against Escherichia coli ATCC 25922 after 24 hrs by broth dilution method
- Assay type: functional
- protocol conditions: ATCC 25922, 24 h
Reported values of MIC for individual entries
# unit: µg/mL | format: bare number

Solved entries (count: 2):
[
  {
    "smiles text": "CC(C)C[C@@H]1NC(=O)[C@H](CCCN)NC(=O)[C@H](C(C)C)NC(=O)[C@@H]2CCCN2C(=O)[C@@H](Cc2ccccc2)NC(=O)[C@H](CC(C)C)NC(=O)[C@H](CCCN)NC(=O)[C@H](C(C)C)NC(=O)[C@H](CCCN)NC(=O)[C@H](CC(C)C)NC(=O)[C@@H]2O[C@H](CNC(=O)[C@H](C(C)C)NC(=O)[C@H](CCCN)NC1=O)[C@@H](O)[C@@H]2O",
    "MIC / µg/mL": 8
  },
  {
    "smiles text": "CC(C)C[C@@H]1NC(=O)[C@H](CCCN)NC(=O)[C@H](C(C)C)NC(=O)[C@@H]2CCCN2C(=O)[C@@H](Cc2ccccc2)NC(=O)[C@H](CC(C)C)NC(=O)[C@H](CCCN)NC(=O)[C@H](C(C)C)NC(=O)[C@H](CCCN)NC(=O)[C@H](CC(C)C)NC(=O)[C@@H]2CCCN2C(=O)[C@@H](Cc2ccccc2)NC(=O)[C@H](C(C)C)NC(=O)[C@@H](CCCN)NC1=O",
    "MIC / µg/mL": 64
  }
]

Proceeding to the next compound to report its MIC.
For the compound "CC(C)C[C@@H]1NC(=O)[C@H](CCCN)NC(=O)[C@H](C(C)C)NC(=O)[C@@H]2CCCN2C(=O)[C@@H](Cc2ccccc2)NC(=O)[C@H](CC(C)C)NC(=O)[C@H](CCCN)NC(=O)[C@H](C(C)C)NC(=O)[C@H](CCCN)NC(=O)[C@H](CC(C)C)NC(=O)[C@@H]2O[C@H](CNC(=O)[C@H](C(C)C)NC(=O)[C@@H](CCCN)NC1=O)[C@@H](OCc1ccccc1)[C@@H]2O" , the measured MIC on Escherichia coli was 32
